Reported AC50 values, Mu-type opioid receptor (Homo sapiens, UniProt P35372).

Q: Supply AC50 value. Item: CCOc1cc(CC(=O)N[C@@H](CC(C)C)c2ccccc2N2CCCCC2)ccc1C(=O)O [REPAGLINIDE]
Ans: > 30 µM

Q: Supply AC50 value. Item: `CCc1oc2ccccc2c1C(=O)c1cc(Br)c(O)c(Br)c1`
Ans: 26 µM

Q: Supply AC50 value. Item: `CCCCNc1ccc(C(=O)OCCN(C)C)cc1`
Ans: > 10 µM

Q: Supply AC50 value. Item: COc1ccnc(C[S+]([O-])c2nc3ccc(OC(F)F)cc3[nH]2)c1OC (stereo not drawn)
Ans: > 30 µM

Q: Supply AC50 value. Item: CN1C[C@H](C(=O)N[C@]2(C)O[C@@]3(O)[C@@H]4CCCN4C(=O)[C@H](Cc4ccccc4)N3C2=O)C[C@@H]2c3cccc4[nH]cc(c34)C[C@H]21 [DIHYDROERGOTAMINE]
Ans: > 30 µM

Q: Supply AC50 value. Item: CC1(C)O[C@@H]2C[C@H]3[C@@H]4C[C@H](F)C5=CC(=O)C=C[C@]5(C)[C@H]4[C@@H](O)C[C@]3(C)[C@]2(C(=O)CO)O1 [FLUNISOLIDE]
Ans: > 30 µM

Q: Supply AC50 value. Item: `CC(=N)N1CC[C@H](SC2=C(C(=O)O)N3C(=O)[C@H]([C@@H](C)O)[C@H]3C2)C1`
Ans: > 300 µM

Q: Supply AC50 value. Item: `CCCN(CCc1cccs1)[C@H]1CCc2c(O)cccc2C1`
Ans: 8.6 µM

----------
- experimental target: Alpha-2C adrenergic receptor (Homo sapiens); further: assay procedure not described here
- Sequence (P18825 whole entry): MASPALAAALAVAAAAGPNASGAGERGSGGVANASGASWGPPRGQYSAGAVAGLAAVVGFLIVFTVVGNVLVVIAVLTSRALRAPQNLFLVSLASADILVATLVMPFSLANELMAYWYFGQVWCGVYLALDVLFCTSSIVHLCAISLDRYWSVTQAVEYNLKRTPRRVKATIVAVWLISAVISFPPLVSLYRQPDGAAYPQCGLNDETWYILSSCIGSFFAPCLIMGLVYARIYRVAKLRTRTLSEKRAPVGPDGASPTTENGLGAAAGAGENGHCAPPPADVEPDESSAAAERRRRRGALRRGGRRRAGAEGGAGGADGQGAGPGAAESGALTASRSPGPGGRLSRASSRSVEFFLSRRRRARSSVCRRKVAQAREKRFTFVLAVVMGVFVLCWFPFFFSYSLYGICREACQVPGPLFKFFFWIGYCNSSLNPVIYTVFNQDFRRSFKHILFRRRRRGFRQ
- Format: functional
Each entry below carries its reported AC50.

Guide cases for AC50, answers given:
Q: // fetch AC50; item: NS(=O)(=O)c1cc(C2(O)NC(=O)c3ccccc32)ccc1Cl (stereo not given) ; system: Alpha-2C adrenergic receptor (Homo sapiens); further: assay procedure not described here
Ans: > 10 µM

Q: // fetch AC50; item: `CC(C)(C)NC[C@H](O)COc1nsnc1N1CCOCC1` ; system: Alpha-2C adrenergic receptor (Homo sapiens); further: assay procedure not described here
Ans: > 30 µM

Q: // fetch AC50; item: `C#C[C@]1(O)CC[C@H]2[C@@H]3CCc4cc(OC)ccc4[C@H]3CC[C@@]21C` ; system: Alpha-2C adrenergic receptor (Homo sapiens); further: assay procedure not described here
Ans: > 30 µM

Q: // fetch AC50; item: `COc1cc(OC)c(C(=O)CCCN2CCCC2)c(OC)c1` ; system: Alpha-2C adrenergic receptor (Homo sapiens); further: assay procedure not described here
Ans: 13 µM

For the next question, use this molecule.
Q: // fetch AC50; item: `Cc1ccc2c(-c3ccccc3)nc(=O)n(C(C)C)c2c1` ; system: Alpha-2C adrenergic receptor (Homo sapiens); further: assay procedure not described here
Ans: > 30 µM

Where these numbers come from: ChEMBL document CHEMBL5291721
